- Test system: DIPGX7 (H3.3 K27M diffuse intrinsic pontine glioma line)
- method: growth inhibition (% activity, log2 RLU normalised to DMSO / staurosporine); higher = more growth inhibition
- details: 33 µM
Reported growth inhibition values are given for each entry in this list.
State just the number; it will be interpreted in %.

Ask: What does the data say about its growth inhibition? Entry: CC1(C)S[C@@H]2[C@H](NC(=O)C(C(=O)O)c3ccccc3)C(=O)N2[C@H]1C(=O)O (some centres undefined)
Result: 0.432

Ask: Request: COCCCOc1cc(C[C@@H](C[C@H](N)[C@@H](O)C[C@H](C(=O)NCC(C)(C)C(N)=O)C(C)C)C(C)C)ccc1OC
Result: 1.89

----------
- Tested on: HGGX39 (paediatric high-grade glioma line)
- method: growth inhibition (% activity, log2 RLU normalised to DMSO / staurosporine); higher = more growth inhibition
- details: 33 µM
Reported growth inhibition values are given for each entry in this list.
State just the number; it will be interpreted in %.

Solved cases below.
molecule smiles	tested on	unit text	numeric value
Cc1onc(-c2ccccc2)c1-c1ccc(S(N)(=O)=O)cc1	HGGX39	%	3.67
COc1cnc(NS(=O)(=O)c2ccc(N)cc2)nc1	HGGX39	%	-0.248
CC(=O)O[C@H]1C(=O)[C@@]2(C)[C@H]([C@H](OC(=O)c3ccccc3)[C@]3(O)C[C@H](OC(=O)[C@H](O)[C@@H](NC(=O)c4ccccc4)c4ccccc4)C(C)=C1C3(C)C)[C@]1(OC(C)=O)CO[C@@H]1C[C@@H]2O	HGGX39	%	32.7
CC(C)/N=c1\cc2n(-c3ccc(Cl)cc3)c3ccccc3nc-2cc1Nc1ccc(Cl)cc1	HGGX39	%	10
CCC(=O)O[C@@H](O[P@](=O)(CCCCc1ccccc1)CC(=O)N1C[C@H](C2CCCCC2)C[C@H]1C(=O)O)C(C)C	HGGX39	%	2.87
CN(C(=O)CN(CCO)CC(=O)N(C)C(C)(C)Cc1ccccc1)C(C)(C)Cc1ccccc1	HGGX39	%	9.74
CCCc1nn(C)c2c(=O)[nH]c(-c3cc(S(=O)(=O)N4CCN(C)CC4)ccc3OCC)nc12	HGGX39	%	0.834

# input for lookup
Ask: What does the data say about its growth inhibition? Entry: Cc1ccnc2c1NC(=O)c1cccnc1N2C1CC1
Result: 0.921

----------
- Test system: DIPGX7
- method: growth inhibition (% activity, log2 RLU normalised to DMSO / staurosporine); higher = more growth inhibition
- details: 33 µM
Decision: growth inhibition >= 4% yields y, all other cases yield n.

compound	assigned label
CCC(=O)O[C@@H](O[P@](=O)(CCCCc1ccccc1)CC(=O)N1C[C@H](C2CCCCC2)C[C@H]1C(=O)O)C(C)C	n
COC(=O)C1=C(C)NC(C)=C(C(=O)OC(C)C)C1c1cccc2nonc12 (stereo not given)	n
CC(c1cc2ccccc2s1)N(O)C(N)=O (stereo not given)	n

Ask: Would you say C=CC[C@@H]1/C=C(\C)C[C@H](C)C[C@H](OC)[C@H]2O[C@@](O)(C(=O)C(=O)N3CCCC[C@H]3C(=O)O[C@H](/C(C)=C/[C@@H]3CC[C@@H](O)[C@H](OC)C3)[C@H](C)[C@@H](O)CC1=O)[C@H](C)C[C@@H]2OC shows growth inhibition at minimum 4%?
Result: n

Ask: Request: Cc1c(-c2ccc(O)cc2)n(Cc2ccc(OCCN3CCCCCC3)cc2)c2ccc(O)cc12
Result: y

----------
- Test system: SUDIPGIV (diffuse intrinsic pontine glioma line)
- method: growth inhibition (% activity, log2 RLU normalised to DMSO / staurosporine); higher = more growth inhibition
- details: 33 µM
Reported growth inhibition values are given for each entry in this list.
State just the number; it will be interpreted in %.

Solved cases below.
compound	growth inhibition [%]
COC(=O)C1=C(C)NC(C)=C(C(=O)OCC(C)C)C1c1ccccc1[N+](=O)[O-] (stereo not given)	0.591
C#C[C@]1(OC(C)=O)CC[C@H]2[C@@H]3CCC4=C[C@@H](OC(C)=O)CC[C@@H]4[C@H]3CC[C@@]21C	-1.23
CCOc1nc2cccc(C(=O)O)c2n1Cc1ccc(-c2ccccc2-c2nnn[nH]2)cc1	-0.153

Ask: growth inhibition of CO/N=C(\C(=O)N[C@@H]1C(=O)N2C(C(=O)O)=C(CSC(=O)c3ccco3)CS[C@H]12)c1csc(N)n1 on SUDIPGIV?
Result: 1.14

Ask: Request: COc1cccc(N(C)C(=S)Oc2ccc3c(c2)CCCC3)n1
Result: 0.755

Ask: Request: c1cnc2cc3c(cc2n1)[C@@H]1CNC[C@H]3C1
Result: -0.44

Ask: Request: Cc1cc(C(C)(C)C)c(O)c(C)c1CC1=NCCN1
Result: 1.18

Ask: Request: Cc1onc(-c2ccccc2)c1-c1ccc(S(N)(=O)=O)cc1
Result: -2.73

Ask: Request: Cc1ncc(C[n+]2csc(CCO)c2C)c(N)n1
Result: -0.371

Ask: Request: NC(CO)C(=O)NNCc1ccc(O)c(O)c1O (stereo not given)
Result: -0.604

Ask: Request: O=C(NCCN1CCOCC1)c1ccc(Cl)cc1
Result: -0.786

Ask: Request: C[C@]12C=CC(=O)C=C1CC[C@@H]1[C@@H]2C(=O)C[C@@]2(C)[C@H]1CC[C@]2(O)C(=O)CO
Result: -3.78

Ask: Request: CCn1cc(C(=O)O)c(=O)c2cc(F)c(N3CCNC(C)C3)c(F)c21 (stereo not given)
Result: -2.28

Ask: Request: COCCCOc1cc(C[C@@H](C[C@H](N)[C@@H](O)C[C@H](C(=O)NCC(C)(C)C(N)=O)C(C)C)C(C)C)ccc1OC
Result: -3.1

Ask: Request: CC=CC1=C(C(=O)O)N2C(=O)[C@@H](NC(=O)[C@H](N)c3ccc(O)cc3)[C@H]2SC1
Result: -0.89

Ask: Request: Cc1onc(-c2c(Cl)cccc2Cl)c1C(=O)N[C@@H]1C(=O)N2[C@@H]1SC(C)(C)[C@@H]2C(=O)O
Result: 1.41

Ask: Request: Cn1c(CNc2ccc(C(=N)N)cc2)nc2cc(C(=O)N(CCC(=O)O)c3ccccn3)ccc21
Result: 1.54

----------
- Test system: DIPGX9 (diffuse intrinsic pontine glioma line)
- method: growth inhibition (% activity, log2 RLU normalised to DMSO / staurosporine); higher = more growth inhibition
- details: 33 µM
Reported growth inhibition values are given for each entry in this list.

Solved cases below.
molecule	growth inhibition
Cc1ccc(NC(=O)c2ccc(CN3CCN(C)CC3)cc2)cc1Nc1nc(-c2cccnc2)cs1	6.79%
NNC(=O)c1ccncc1	0.954%
CN(C)CCCC1(c2ccc(F)cc2)OCc2cc(C#N)ccc21 (stereo not drawn)	1.7%
CN(C)[C@@H]1C(O)=C(C(=O)NCN2CCCC2)C(=O)[C@@]2(O)C(O)=C3C(=O)c4c(O)cccc4[C@@](C)(O)[C@H]3C[C@@H]12	0.66%
CC(=O)Oc1ccc(C(c2ccc(OC(C)=O)cc2)c2ccccn2)cc1	8.29%
CNC(=O)c1ccccc1Sc1ccc2c(/C=C/c3ccccn3)n[nH]c2c1	17.5%
NC(=O)CC[C@H](N)C(=O)O	0.17%
CCCCN1CCCCC1C(=O)Nc1c(C)cccc1C (stereo not drawn)	0.909%
COc1ccc2cc(CCC(C)=O)ccc2c1	-2.24%
O=C(O)C1=CO[C@@H](O[C@@H]2O[C@H](CO)[C@@H](O)[C@H](O)[C@H]2O)[C@@H]2C(CO)=CC[C@H]12	-1.59%

Ask: What does the data say about its growth inhibition? Entry: COc1cc([C@@H]2c3cc4c(cc3[C@@H](O[C@@H]3O[C@@H]5CO[C@@H](C)O[C@H]5[C@H](O)[C@H]3O)[C@H]3COC(=O)[C@H]23)OCO4)cc(OC)c1O
Result: 24.1%

Ask: Request: N=C(N)NCCC[C@H](N)C(=O)O
Result: -2.03%

Ask: Request: CCC1(c2ccccc2)C(=O)NCNC1=O
Result: -0.432%

Ask: Request: COc1ccccc1OCC(O)CO (stereo not drawn)
Result: -0.66%

Ask: Request: C[C@@H](CN1CC(=O)NC(=O)C1)N1CC(=O)NC(=O)C1
Result: 0.711%

Ask: Request: CCOc1ccccc1OC(c1ccccc1)C1CNCCO1 (stereo not drawn)
Result: 1.96%

Ask: Request: CN[C@H]1CC[C@@H](c2ccc(Cl)c(Cl)c2)c2ccccc21
Result: 4.32%

Ask: Request: O=C(O)COCCN1CCN(C(c2ccccc2)c2ccc(Cl)cc2)CC1 (stereo not drawn)
Result: 2.72%

Ask: Request: NS(=O)(=O)c1cc2c(cc1Cl)NC(C(Cl)Cl)NS2(=O)=O (stereo not drawn)
Result: 5.41%

Ask: Request: CN1CCC(=C2c3ccccc3CCc3cccnc32)CC1
Result: -1.74%

Ask: Request: CS(=O)(=O)c1ccc([C@@H](O)[C@@H](CF)NC(=O)C(Cl)Cl)cc1
Result: 2.53%

Ask: Request: CCCCC1=NC2(CCCC2)C(=O)N1Cc1ccc(-c2ccccc2-c2nnn[nH]2)cc1
Result: 1.47%

Ask: Request: COc1ccc(-n2nc(C(N)=O)c3c2C(=O)N(c2ccc(N4CCCCC4=O)cc2)CC3)cc1
Result: 0.547%
